- assay.summary: Human Liver Microsomal Stability (Test C)
- Assay type: in vitro ADME
- particulars: human, liver microsomes
measurement.label: microsomal CLint (µL/min/mg)

{"columns": ["molecule", "microsomal CLint, µL/min/mg"],
 "data": [
  ["COc1cc(F)c(O[C@H]2CC[C@@](C)(C(=O)O)CC2)cc1C(=O)N[C@@H]1[C@H]2CC[C@H](C2)[C@@H]1C(=O)Nc1cccc(S(=O)(=O)C(F)(F)F)c1", 54],
  ["COc1cc(F)c(O[C@H]2CC[C@@H](C(=O)O)CC2)cc1C(=O)N[C@@H]1[C@H]2CC[C@H](C2)[C@@H]1C(=O)Nc1cccc(C(F)(F)F)c1", 29],
  ["COc1cc(F)c(-c2ccc(C(=O)O)cc2)cc1C(=O)N[C@H]1[C@@H](C(=O)Nc2cccc(S(=O)(=O)C(F)(F)F)c2)[C@@H]2C=C[C@H]1C2 (racemic) [Example 224]", 6.3],
  ["COc1cc(F)c(-c2cnc(NCC(=O)O)nc2)cc1C(=O)N[C@@H]1[C@H]2CC[C@H](C2)[C@@H]1C(=O)Nc1cccc(S(=O)(=O)C(F)(F)F)c1", 19],
  ["COc1cc(C#N)c(O[C@H]2CC[C@@](C)(C(=O)O)CC2)cc1C(=O)N[C@@H]1CCC[C@@H]1C(=O)NCC1(C)CCC1", 8.4],
  ["COc1cc(F)c(-c2ccc(CCC(=O)O)cc2)cc1C(=O)N[C@@H]1CCC[C@@H]1C(=O)Nc1cccc(S(=O)(=O)C(F)(F)F)c1", 33]
]}

P: COc1cc(F)c(-c2cccc(CCC(=O)O)c2)cc1C(=O)N[C@@H]1CCC[C@@H]1C(=O)Nc1cccc(S(=O)(=O)C(F)(F)F)c1
Q: CCC(CC)CNC(=O)[C@H]1[C@@H]2CC[C@@H](C2)[C@H]1NC(=O)c1cc(O[C@H]2CC[C@@](C)(C(=O)O)CC2)c(C#N)cc1OC
R: COc1cc(F)c(O[C@H]2CC[C@@](C)(C(=O)O)CC2)cc1C(=O)N[C@@H]1[C@H]2CC[C@H](C2)[C@@H]1C(=O)NCC1(C)CC1
Problem: Please produce an ascending ranking of these molecules based on microsomal CLint. Reply: labels, ordered per the request.
Result: R, P, Q

---

- assay.summary: Human Hepatocyte Stability (Test D)
- Type: in vitro ADME
- particulars: human, cryopreserved pooled human hepatocytes (LiverPool 10-Donor), geometric mean if run multiple times
measurement.label: hepatocyte CLint at 1 µM (µL/min/1e6 cells)

{"columns": ["molecule", "readout.units", "hepatocyte CLint at 1 µM"],
 "data": [
  ["COc1c(F)cc(O[C@H]2CC[C@@](C)(C(=O)O)CC2)cc1C(=O)N[C@@H]1[C@H]2CC[C@H](C2)[C@@H]1C(=O)NCC1(C)CCC1 [Example 374]", "µL/min/1e6 cells", 5.3]
]}

a: COc1cc(F)c(-c2cnn(CC(=O)O)c2)cc1C(=O)N[C@H]1[C@@H](C(=O)Nc2cccc(S(=O)(=O)C(F)(F)F)c2)[C@@H]2C=C[C@H]1C2 [Example 271]
b: CC1(CNC(=O)[C@H]2[C@@H]3CC[C@@H](C3)[C@H]2NC(=O)c2cc(O[C@H]3CC[C@@](C)(C(=O)O)CC3)c(Cl)cc2F)CCC1 [Example 408]
Problem: Just curious, which one has the larger hepatocyte CLint at 1 µM reading, a or b ? Respond using the label that marks the chosen record.
Result: b
